- Protocol Details: chemical genetic growth profiling, strain panel (AID 1159580);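 also: tested at 20 µM; growth read once vehicle control cultures reached saturation at 30 °C; 1 = growth at the plate median or of vehicle wells; lower values mean less growth of the strain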
- Assay Setup: S. cerevisiae deletion strains, growth OD, locus YHR082C, strain KSP1, stronger effect = lower value
About 2,000 (36%) of roughly 5,500 compounds were called active. About 18% were inconclusive and are not listed. The list shows a part of the results.
I'd appreciate it if you marked entries satisfied when normalized growth is lower than 0.9 and not satisfied when it is not.

1. CC1(C)OC(=O)C(=Cc2cccn2-c2ccc(OC(F)(F)F)cc2)C(=O)O1
satisfied
2. CCCCN(C)C(=O)c1cc([N+](=O)[O-])cc2c1-c1ccc([N+](=O)[O-])cc1C2=C(C#N)C#N
not satisfied
3. Cc1ccc(NS(=O)(=O)c2ccc(-c3csc(C)n3)s2)c(C)c1
not satisfied

In plain terms, does CC(=O)ON=C1c2cc([N+](=O)[O-])ccc2-c2ccc([N+](=O)[O-])cc21 come in under 0.9 for normalized growth?
satisfied

----------
- Protocol Details: chemical genetic growth profiling, strain panel (AID 1159580);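 also: tested at 20 µM; growth read once vehicle control cultures reached saturation at 30 °C; 1 = growth at the plate median or of vehicle wells; lower values mean less growth of the strain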
- Assay Setup: S. cerevisiae deletion strains, growth OD, locus YLR262C, strain YPT6, stronger effect = lower value
In all, about 5,500 compounds went through this assay and about 2,000 (36%) were called active. Roughly 18% stayed inconclusive and do not appear here. Some of the results follow.
Measured Parameter: normalized growth
Answers are plain numbers.

The following compounds have reported results that may help.
1) CC(C)(C)S(=O)(=O)/C(C#N)=C/N1CCCCC1
1.03
2) N#Cc1c(N)oc(-c2ccco2)c1-c1ccco1
0.999

State recorded normalized growth for all listed compounds.
1. CC12NC(=O)NC1(C)NC(=O)N2 (centres undefined)
2. Cc1c(Cl)cccc1Nc1ccccc1C(=O)O
3. O=C1OC(c2ccc(O)cc2)(c2ccc(O)cc2)c2ccccc21
4. CCCCCCOc1ccccc1C(N)=O
5. CC(=O)OCC(COC(C)=O)OC(C)=O

1: 1.04; 2: 0.491; 3: 0.946; 4: 0.921; 5: 1.03

Each compound below has a recorded value; state its normalized growth.
1. OC(Cn1cncn1)(Cn1cncn1)c1ccc(F)cc1F
2. CC1(C)O[C@@H]2CC3C4CCC5=CC(=O)CCC5(C)C4(F)C(O)CC3(C)[C@]2(C(=O)CCl)O1 (some centres undefined)
3. CCCCOC(=O)c1ccc(N)cc1
4. CCCNC1CCc2nc(N)sc2C1 (centres undefined)
5. CCCCN(CCCC)CCCOC(=O)c1ccc(N)cc1
6. Nc1ccn(C2O[C@H](CO)[C@@H](O)[C@@H]2O)c(=O)n1 (some centres undefined)

1. 0.634
2. 0.942
3. 0.775
4. 1.06
5. 0.876
6. 1.01

Please look at the items below and tell me normalized growth for each one, in order.
1. O=C(C1CCCCC1)N1CC(=O)N2CCc3ccccc3C2C1 (centres undefined)
2. CCN(CC)CCOC(=O)c1ccc(N)cc1
3. CC1(C)NC(=O)N(c2ccc([N+](=O)[O-])c(C(F)(F)F)c2)C1=O
4. Cc1cc(-c2ccccc2)nnc1NCCN1CCOCC1
5. CCOC(=O)Cn1c(=O)c(C#N)cn(C(C)C)c1=O

1.02
1.04
0.988
1.04
1.01

Hi, could you look up normalized growth for each item in my list?
1. c1ccc(-c2cc3c(ccc4nonc43)nn2)cc1
2. C=C1CCC2C(CC2(C)C)C(=C)CC/C1=N\O (centres undefined)
3. O=C(O)CN(CC(=O)O)Cc1cc2c(-c3ccccc3C(=O)O)c3cc(CN(CC(=O)O)CC(=O)O)c(=O)cc-3oc2cc1O
4. C/C1=C\CCC(=O)C2CC(C)(C)C2CC1 (centres undefined)
5. COc1ccc2c(c1)CCC(c1ccccc1)=C2c1ccc(OCCN2CCCC2)cc1
6. COc1ccc(CCN2CCC(Nc3nc4ccccc4n3Cc3ccc(F)cc3)CC2)cc1

[0.988, 0.393, 1.06, 1.1, 1.16, 1.21]

The following compounds each have a reported value; give each one's normalized growth.
1. CCCCNc1ccc(C(=O)OCCN(C)C)cc1
2. CC(C)(C)CC(C)(C)c1ccc(O)c(Cc2ccc(Cl)cc2Cl)c1
3. CCCCOC(=O)c1ccccc1C(=O)OCCCC

1. 1.13
2. 0.974
3. 0.931

Here are 6 compounds. What values of normalized growth were reported for them?
1. Oc1ccc(Cl)cc1
2. O=C(O)c1ccccc1-c1c2cc(Br)c(=O)cc-2oc2[c]([Hg])c(O)c(Br)cc12
3. C=C1CCC(=O)C(C)CCC2C1CC2(C)C (centres undefined)
4. O=C(CSCc1cccc2ccccc12)NNC(=O)c1ccc(F)cc1
5. Cc1nc(-c2ccc(S(=O)(=O)N3CCN(c4ncnc5scc(-c6ccccc6)c45)CC3)s2)cs1
6. Cc1ccc(C)c(OCCCC(C)(C)C(=O)O)c1

1. 0.986
2. 0.68
3. 1.03
4. 0.919
5. 1.02
6. 0.509

// input: 6 compounds below; output: normalized growth for each
1. CC1(C)C2(Cl)C(Cl)C(Cl)C(Cl)(C(Cl)Cl)C1(Cl)C2Cl (centres undefined)
2. CC(=O)Oc1c(C)cccc1C(=O)O
3. CC(C)C(=O)Nc1ccc([N+](=O)[O-])c(C(F)(F)F)c1
4. C=C1C(=O)O[C@@H]2C[C@@]3(C)CCC[C@H](C)C3=C[C@H]12
5. C=C1CCC(OC(C)=O)/C(C)=C/C[C@@H]2[C@@H]1CC2(C)C (some centres undefined)
6. CC(C)[C@@H]1CC[C@@H](C)C[C@H]1O

0.768
1.05
0.899
0.268
0.932
1.01

Look up normalized growth for the entries below, preserving their order.
1. CC(=O)OCC[C@H](C)CCC=C(C)C
2. Nc1cc2c(cc1Cl)C(=O)NC2=O
3. O=C(CSCc1cccc2ccccc12)NNC(=S)Nc1ccccc1Cl
4. CCCCOC(=O)c1ccccc1C(=O)OCc1ccccc1
5. CC(=O)N[C@@H](CS)C(=O)O

[1.09, 1, 0.623, 0.858, 1.08]
